Biological target: MAPKAPK5 (Homo sapiens, UniProt Q8IW41)
Sequence (Q8IW41 1-471 isoform Q8IW41-2): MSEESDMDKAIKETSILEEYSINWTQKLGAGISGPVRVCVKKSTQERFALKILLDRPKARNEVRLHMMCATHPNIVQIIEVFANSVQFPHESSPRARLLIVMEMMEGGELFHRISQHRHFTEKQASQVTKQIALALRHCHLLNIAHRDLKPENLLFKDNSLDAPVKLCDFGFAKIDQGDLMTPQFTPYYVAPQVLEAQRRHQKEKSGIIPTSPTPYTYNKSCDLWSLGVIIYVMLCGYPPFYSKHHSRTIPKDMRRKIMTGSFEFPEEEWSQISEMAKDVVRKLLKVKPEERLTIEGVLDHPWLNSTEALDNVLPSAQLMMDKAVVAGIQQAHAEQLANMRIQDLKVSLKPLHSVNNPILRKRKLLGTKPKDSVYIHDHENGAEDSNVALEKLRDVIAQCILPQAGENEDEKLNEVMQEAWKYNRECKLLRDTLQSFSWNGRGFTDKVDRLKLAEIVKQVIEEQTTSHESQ
metric name: IC50

CC(C)N1CCN(c2ccc(Nc3ncc(-c4ccc5cn[nH]c5c4)n4ncnc34)cc2)CC1 [Compound 106]; > 1000 nM
Fc1cc(N2CCOCC2)ccc1Nc1ncc(-c2cn[nH]c2)n2ncnc12 [Compound 67]; > 1000 nM
NC(=O)c1cc(-c2cnc(Nc3ccc(N4CCNCC4)cc3)c3ncnn23)cs1 [Compound 27]; 101 to 500 nM
CC(C)N1CCCN(c2ccc(Nc3ncc(-c4cn[nH]c4)n4ncnc34)cc2)CC1 [Compound 187]; > 1000 nM
CC(C)N1CCN(c2ccc(Nc3ncc(-c4csc(C(N)=O)n4)n4ncnc34)cc2)CC1 [Compound 62]; 501 to 1000 nM
CC(C)NC(=O)CN1CCN(C(=O)c2ccc(Nc3ncc(-c4cn[nH]c4)n4ncnc34)cc2)CC1 [Compound 155]; 501 to 1000 nM
FC(F)(F)CN1CCN(c2ccc(Nc3ncc(-c4cn[nH]c4)n4ncnc34)cn2)CC1 [Compound 44]; > 1000 nM
OCc1cc(Nc2ncc(-c3cn[nH]c3)n3ncnc23)ccc1N1CCOCC1 [Compound 37]; > 1000 nM

IC50 reading for CC(C)N1CCN(c2ccc(Nc3ncc(-c4coc(C(N)=O)c4)n4ncnc34)cn2)CC1 [Compound 86] : 1 to 100 nM

IC50 reading for FC(F)(F)CN1CCN(c2ccc(Nc3ncc(-c4cn[nH]c4)n4ncnc34)cc2)CC1 [Compound 45] : > 1000 nM

IC50 reading for NC(=O)CN1CCC(c2ccc(Nc3ncc(-c4cn[nH]c4)n4ncnc34)cc2)CC1 [Compound 169] : 501 to 1000 nM

IC50 reading for NC(=O)c1cc(-c2cnc(Nc3ccc(NC(=O)Cc4ccccc4)nc3)c3ncnn23)cs1 [Compound 167] : 501 to 1000 nM

IC50 reading for NC(=O)c1cc(-c2cnc(Nc3ccc(N4CCN(CC(F)(F)F)CC4)nc3)c3ncnn23)cs1 [Compound 56] : 501 to 1000 nM

IC50 reading for CN(Cc1ccccc1)C(=O)c1cccc(Nc2ncc(-c3cn[nH]c3)n3ncnc23)c1 [Compound 134] : > 1000 nM

IC50 reading for c1ccc2c(-c3cnc(Nc4ccc(N5CCOCC5)cc4)c4ncnn34)csc2c1 [Compound 48] : > 1000 nM
